Form: system (UniProt:O14744), quantity (Kd), values below.
Use nM as the unit, but write only the number.

Below: 5 compounds and their reported Kd.
Cc1cc2[nH]c(C(C#N)N3C(=O)c4ccccc4C3=O)cc2nc1N (stereo not drawn); 203
Cc1cc2[nH]c(CN3C(=O)c4ccccc4C3=O)cc2nc1N; 1
Cc1cc2[nH]c(Cn3ccc4ccccc4c3=O)cc2nc1N; 2
Cc1cc2[nH]ccc2nc1N; 456
Cc1cc(N)nc2cc(Cc3ccccc3F)cnc12; 5280

Give measured Kd for `Cc1cc(N)nc2cc(Cc3ccccc3C#N)cnc12` (UniProt:O14744).
874

Give measured Kd for `Cc1cc2[nH]c(CN3CCc4ccccc4C3=O)cc2nc1N` (UniProt:O14744).
1

Give measured Kd for `Cc1cc2sc(CNC(=O)c3ccccc3)cc2nc1N` (UniProt:O14744).
72

Give measured Kd for `Cc1cc(N)nc2cc(-c3cnsc3)cnc12` (UniProt:O14744).
7500

Give measured Kd for `Cc1cc2[nH]c(-n3cncn3)cc2nc1N` (UniProt:O14744).
510

Give measured Kd for `Nc1nc2cc[nH]c2cc1C(F)(F)F` (UniProt:O14744).
11700

====

Each item that follows carries a reported IC50.
Target: PRMT5/MEP50 complex (Homo sapiens (Human), UniProt O14744)
Sequence (O14744 whole entry): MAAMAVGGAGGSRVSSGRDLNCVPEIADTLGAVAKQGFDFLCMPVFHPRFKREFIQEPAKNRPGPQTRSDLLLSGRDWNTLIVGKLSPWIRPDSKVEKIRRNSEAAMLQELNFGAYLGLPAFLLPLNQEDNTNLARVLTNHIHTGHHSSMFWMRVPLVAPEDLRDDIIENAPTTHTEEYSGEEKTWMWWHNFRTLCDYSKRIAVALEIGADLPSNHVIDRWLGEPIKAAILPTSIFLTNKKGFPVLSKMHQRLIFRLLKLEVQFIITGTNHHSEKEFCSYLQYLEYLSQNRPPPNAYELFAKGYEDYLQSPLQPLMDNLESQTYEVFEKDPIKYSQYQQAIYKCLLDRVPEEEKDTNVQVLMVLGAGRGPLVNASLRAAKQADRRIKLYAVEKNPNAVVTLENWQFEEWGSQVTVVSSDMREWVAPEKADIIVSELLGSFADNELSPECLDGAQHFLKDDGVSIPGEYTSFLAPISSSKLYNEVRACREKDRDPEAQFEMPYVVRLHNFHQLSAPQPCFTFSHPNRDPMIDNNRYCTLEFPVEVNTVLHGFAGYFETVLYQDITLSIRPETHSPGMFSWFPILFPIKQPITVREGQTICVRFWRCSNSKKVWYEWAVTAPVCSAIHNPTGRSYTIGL
Sequence (Q9BQA1 whole entry partner): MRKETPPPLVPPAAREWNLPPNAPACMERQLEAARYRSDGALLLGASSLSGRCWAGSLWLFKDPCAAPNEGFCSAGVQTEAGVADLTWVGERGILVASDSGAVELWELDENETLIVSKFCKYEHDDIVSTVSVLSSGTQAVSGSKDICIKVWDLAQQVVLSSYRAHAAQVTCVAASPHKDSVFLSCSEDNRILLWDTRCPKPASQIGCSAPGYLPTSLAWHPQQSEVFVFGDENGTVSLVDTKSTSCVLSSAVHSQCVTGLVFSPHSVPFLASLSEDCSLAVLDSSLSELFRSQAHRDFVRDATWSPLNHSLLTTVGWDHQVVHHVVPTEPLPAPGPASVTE
Assay: PRMT5:MEP50 FlashPlate Assay
Format: biochemical
Conditions: IC50 + 2 μM MTA, histone H4 peptide, presence of 2 μM MTA
Use µM as the unit, but write only the number.

Cc1cc2[nH]c(N3CCNC3=O)cc2nc1N; 183
Cc1cc2[nH]c(-n3cnc(Br)n3)cc2nc1N; 72.8
Cc1cc2[nH]c(N3CCN(C)C3=O)cc2nc1N; 70

With those in mind, consider the next compound.
Supply IC50 value. Item: `Cc1cc2[nH]c(-n3cnc(Br)c3)cc2nc1N`
131

====

Molecular target: recombinant human dual expressed Avi PRMT5/His-MEP50 protein (Homo sapiens (Human))
Test: HTRF binding assay in presence of MTA
Conditions: 30 μM MTA
Each item that follows carries a reported pIC50.
Quick note: pIC50 values are minus log10 of concentrations in mol/L.

Below: 2 compounds and their reported pIC50.
Cc1cc(N)nc2cc(-c3ccsn3)cnc12 [Example 1-5]; 4.26
Cc1cc2[nH]c(-n3cnc(Br)c3)cc2nc1N [Example 13-3]; 5.63

Supply pIC50 value. Item: Cc1cc(N)nc2cc(CN3C(=O)c4ccccc4C3=O)cnc12 [Example 7-6]
7.68

====

Each item that follows carries a reported pIC50.
Target: recombinant human dual expressed Avi PRMT5/His-MEP50 protein (Homo sapiens (Human), UniProt O14744)
Sequence (O14744 2-637): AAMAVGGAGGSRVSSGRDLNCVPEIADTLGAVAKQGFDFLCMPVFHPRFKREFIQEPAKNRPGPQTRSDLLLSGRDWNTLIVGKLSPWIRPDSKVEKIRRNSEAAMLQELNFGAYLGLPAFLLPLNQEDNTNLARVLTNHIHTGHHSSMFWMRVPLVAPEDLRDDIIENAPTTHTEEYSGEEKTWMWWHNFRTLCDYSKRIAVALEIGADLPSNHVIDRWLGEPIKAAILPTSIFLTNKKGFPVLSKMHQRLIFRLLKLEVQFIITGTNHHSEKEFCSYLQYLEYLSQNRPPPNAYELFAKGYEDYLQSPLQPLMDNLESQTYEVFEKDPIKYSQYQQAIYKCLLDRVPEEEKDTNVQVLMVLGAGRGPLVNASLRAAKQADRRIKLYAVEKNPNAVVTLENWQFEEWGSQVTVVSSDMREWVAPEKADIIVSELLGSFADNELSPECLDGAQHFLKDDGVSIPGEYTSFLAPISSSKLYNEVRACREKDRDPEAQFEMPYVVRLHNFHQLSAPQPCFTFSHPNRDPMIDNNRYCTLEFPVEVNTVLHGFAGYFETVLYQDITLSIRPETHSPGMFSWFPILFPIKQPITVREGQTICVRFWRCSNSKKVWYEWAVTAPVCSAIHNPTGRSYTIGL
Sequence (Q9BQA1 2-342 partner): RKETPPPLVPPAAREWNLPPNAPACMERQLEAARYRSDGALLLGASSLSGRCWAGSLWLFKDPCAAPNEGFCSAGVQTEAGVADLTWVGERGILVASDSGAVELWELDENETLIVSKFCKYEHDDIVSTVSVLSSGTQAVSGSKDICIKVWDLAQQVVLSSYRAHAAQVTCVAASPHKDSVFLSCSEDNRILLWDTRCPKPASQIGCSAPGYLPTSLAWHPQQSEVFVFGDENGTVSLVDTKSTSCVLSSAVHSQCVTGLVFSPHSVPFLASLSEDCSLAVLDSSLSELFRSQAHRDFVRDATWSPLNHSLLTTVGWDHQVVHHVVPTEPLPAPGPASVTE
Experiment: HTRF binding assay in presence of MTA
Settings: 30 μM MTA
Quick note: pIC50 values are minus log10 of concentrations in mol/L.

Supply pIC50 value. Item: Cc1cc(N)nc2cc(Cc3ccccn3)cnc12 [Example 2-6]
5.55

Supply pIC50 value. Item: CC(=O)N(C)Cc1cc2nc(N)c(C)cc2n1C(C)=O [Example 15-8]
6.00

Supply pIC50 value. Item: Cc1cc(N)nc2ccc(-c3ccsn3)nc12 [Example 4-10]
4.87

====

Molecular target: recombinant human dual expressed Avi PRMT5/His-MEP50 protein (Homo sapiens (Human))
Assay: HTRF binding assay in presence of MTA
Conditions: 30 μM MTA
readout.kind: IC50 (µM)
Use µM as the unit, but write only the number.

Below: 5 molecules and their reported IC50.
Cc1cc2[nH]c(-n3cnc(Br)n3)cc2nc1N; 4.27
Cc1cc(N)nc2ccc(-c3cnn(C)c3)nc12; 64.1
Cc1cc(N)nc2cc(Cc3ccccc3Cl)cnc12; 1.31
Cc1cc(N)nc2cc(Cc3ccccc3)cnc12; 6.64
Cc1cc2[nH]ccc2nc1N; 2.2

Supply IC50 value. Item: `Cc1ccccc1Oc1cnc2c(C)cc(N)nc2c1`
39.6

Supply IC50 value. Item: `Cc1cc2c(cc(CNC(=O)c3ccccc3)n2C)nc1N`
0.138

Supply IC50 value. Item: `Nc1ccc2c(n1)CN(c1cccnc1)CC2`
3.68

Supply IC50 value. Item: `Cc1cc2[nH]c(-n3cncn3)cc2nc1N`
1.28

Supply IC50 value. Item: `Cc1cc(N)nc2cc(Oc3ccccc3)cnc12`
8.99

====

Biological target: recombinant human dual expressed Avi PRMT5/His-MEP50 protein (Homo sapiens (Human), UniProt O14744)
Assay: HTRF binding assay in presence of MTA
Details: 30 μM MTA
Criterion: IC50 strictly less than 10 µM. Met: MET. Not met: NOT MET.

CC(=O)c1c(CNC(=O)c2ccccc2)[nH]c2cc(C)c(N)nc12; NOT MET
Cc1cc(N)nc2cc(Cc3ccccc3F)cnc12; MET
Cc1cc(N)nc2cc(Oc3ccccc3C#N)cnc12; NOT MET
Cc1cc(N)nc2cc(-c3ccccc3)cnc12; NOT MET
Cc1cc(N)nc2cc(CNC(=O)c3cc(NC4CC4)ncn3)cnc12; MET

Decide: IC50 of `Nc1ccc2c(n1)CN(c1cncc(Oc3ccccc3)c1)CC2` strictly below 10 µM?
MET

Decide: IC50 of `Cc1cc(N)nc2cc(Cc3cscn3)cnc12` strictly below 10 µM?
MET

Decide: IC50 of `Cc1cc(N)nc2cc(Oc3ccccc3Cl)cnc12` strictly below 10 µM?
MET

Decide: IC50 of `Cc1cc2[nH]c(CN3CCc4ccccc4C3=O)cc2nc1N` strictly below 10 µM?
MET

Decide: IC50 of `Cc1cc2[nH]c(N3CCNC3=O)cc2nc1N` strictly below 10 µM?
MET

Decide: IC50 of `Cc1cc(N)nc2cc(Oc3ccncc3)cnc12` strictly below 10 µM?
NOT MET

Decide: IC50 of `Cn1ncc(N2CCc3cc(F)c(N)nc3C2)c1-c1ccccc1C#N` strictly below 10 µM?
MET

====

Target: PRMT5/MEP50 complex (Homo sapiens (Human))
Assay: PRMT5:MEP50 FlashPlate Assay
Assay type: biochemical
Conditions: read-out: IC50 + 2 μM MTA, histone H4 peptide, presence of 2 μM MTA
readout.kind: IC50

Below: 2 molecules and their reported IC50.
Cc1cc2[nH]c(NC(=O)c3ccccc3)cc2nc1N; 44.7 µM
Cc1cc(N)nc2ccc(-c3ccccc3F)nc12; > 300 µM

Give measured IC50 for `Cc1cc(N)nc2cc(-c3cnsc3)cnc12` (PRMT5/MEP50 complex (Homo sapiens (Human))).
> 300 µM

Give measured IC50 for `CC(=O)N1CCC(=O)n2c(cc3nc(N)c(C)cc32)C1` (PRMT5/MEP50 complex (Homo sapiens (Human))).
57.9 µM

Give measured IC50 for `Cc1cc(N)nc2cc(Cc3cnn(C)c3)cnc12` (PRMT5/MEP50 complex (Homo sapiens (Human))).
17.1 µM

====

Molecular target: recombinant human dual expressed Avi PRMT5/His-MEP50 protein (Homo sapiens (Human))
Assay: HTRF binding assay in presence of MTA
Conditions: 30 μM MTA
Description: The PRMT5 binding activity of compounds of the present invention was determined using an HTRF binding assay or SPR assay. A recombinant human dual expressed Avi PRMT5/His-MEP50) protein (corresponding to amino acids for PRMT5 2-637, and 2-342 for MEP50 expressed in baculovirus) was incubated with target fragments in final buffer (25 mM ADA pH 7.2, 30 μM MTA, 1 mM TCEP, 50 mM NaCl, 0.002% Tween, 5 nM proprietary Tracer binding compound prepared in-house), overnight at 2-8° C. […]
readout.kind: IC50

Below: 8 compounds and their reported IC50.
Nc1nc2cc(NC(=O)c3ccccc3F)[nH]c2cc1Br; 1620 nM
Cc1cc(N)nc2cc(CNC(=O)c3cc(O)ncn3)cnc12; 1060 nM
Cc1cc2sc(CNC(=O)c3ccccc3)cc2nc1N; 163 nM
Cc1cc(N)nc2cc(Oc3ccccc3F)cnc12; 5110 nM
Cc1cc(N)nc2cc(-c3cccnn3)cnc12; 7460 nM
CC(=O)N(Cc1cc2nc(N)c(C)cc2[nH]1)c1ccc2ccccc2c1C#N; 2 nM
CC(=O)N1CCC(=O)n2c(cc3nc(N)c(C)cc32)C1; 2470 nM
Cc1cc(N)nc2cc(CNC(=O)c3ccccc3)cnc12 [Example 8-1]; 9 nM

Supply IC50 value. Item: `Nc1nc2cc[nH]c2cc1C1CC1`
24700 nM

Supply IC50 value. Item: `Cc1cc(N)nc2cc(Cc3cnn(C)c3)cnc12`
204 nM

====

Target: PRMT5/MEP50 complex (Homo sapiens (Human))
Experiment: PRMT5:MEP50 HotSpot Assay
Type: biochemical
Conditions: read-out: IC50 + 2 μM MTA, full-length histone H2A, presence of 2 μM MTA
pIC50: −log10 of the molar value.
Use 5 as the dividing line for pIC50, with the line itself on the Met side and lower values as Not met.

In plain terms: is recorded pIC50 at least 5 for Cc1cc2[nH]c(C(=O)N(Cc3ccc(C(F)(F)F)cn3)C3CCCc4nccnc43)cc2nc1N (stereo in doubt) ?
Met

In plain terms: is recorded pIC50 at least 5 for `CC(=O)N(Cc1cc2nc(N)c(C)cc2[nH]1)c1ccc2ccccc2c1C#N` ?
Met

In plain terms: is recorded pIC50 at least 5 for `Cc1cc2ncc(C(=O)N(Cc3ccc(Br)cn3)[C@H](C)c3ncccn3)cc2nc1N` ?
Met

In plain terms: is recorded pIC50 at least 5 for `Cc1cc2ncc(C(=O)N(Cc3ccc(Br)cn3)[C@@H](C)c3ncccn3)cc2nc1N` ?
Not met

In plain terms: is recorded pIC50 at least 5 for `Cc1cc2ncc(C(=O)N(Cc3ccc(C(F)(F)F)cn3)[C@@H]3CCCc4nccnc43)cc2nc1N` ?
Met

In plain terms: is recorded pIC50 at least 5 for `Cc1cc2ncc(C(=O)N(Cc3ccc(C(F)(F)F)cn3)[C@H]3CCCc4nccnc43)cc2nc1N` ?
Not met

In plain terms: is recorded pIC50 at least 5 for `Cc1cc2[nH]c(CN3C(=O)c4ccccc4C3=O)cc2nc1N` ?
Met

In plain terms: is recorded pIC50 at least 5 for `CC(=O)N(Cc1cnc2c(C)cc(N)nc2c1)c1ccc2ccccc2c1C#N` ?
Met
